Recorded cytotoxicity at 10 µM values for a group of compounds are listed next.
Protocol Description: Toxicity liver stage against HepG2, at 10uM
Assay type: cell-based
Set-up: test concentration 10 uM, cell line HepG2-A16-CD81EGFP
Condition: human, HepG2-A16-CD81EGFP cells; read-out: INHIBITION
Please give a number only; it is taken to be in %.

* Cc1nn2cccnc2c1C(=O)N1CCCC(Nc2ccccc2)C1 (configuration not stated) | 5.82
* CC(=O)N1CCN(C(=O)CCCc2nc(C(C)C)no2)CC1 | -9.34
* CCC(CC)(CNC(=O)OC(C)(C)C)NC(=O)C1CC1 | -0.708
* CC(NC(=O)CCn1cccn1)c1ccc(-n2ccnn2)cc1 (configuration not stated) | -1.99
* O=C(C1CC=CC1)N1CCC2(CCN(Cc3cccc(F)c3)CC2)C1 | -4.48

## Task Fill in: cytotoxicity at 10 µM of Cc1nn(C)c(C)c1CCC(=O)N1CCCC(n2cncn2)C1 (configuration not stated) is ___
## Result -1.4

## Task Same again, this time with O=C(O)[C@@H]1CN(C2CCOCC2)C[C@H]1C1CC1
## Result -160

## Task CCC(Nc1ccc(CCN2CCCCC2)cc1)C(N)=O (configuration not stated) ?
## Result 4.47

## Task Can you check c1cnn(CC2CN(Cc3nc(C4CC4)no3)CCO2)c1 (configuration not stated) next?
## Result -27.6

## Task Please answer likewise for CC(=O)NCC(=O)NCC1Cn2nnc(-c3cccc(F)c3)c2CO1 (configuration not stated)
## Result -6.77

## Task Similarly, CC(=O)N1CCC(c2ccnc(Nc3cc(C(F)(F)F)ccn3)n2)C1 (configuration not stated) ?
## Result 11

## Task Request: c1cnc(N2CCO[C@H]3[C@H](OCc4cccnc4)CC[C@@H]32)nc1
## Result -5.05

## Task Now the same for O=C(c1ccccc1)N1CCS(=O)(=O)[C@@H]2CCNCC[C@@H]21
## Result -127

## Task Queued: O=C(C1CCOCC1)N1CCC2(CCNCC2)C1
## Result 3.41
